Entry source: PubChem BioAssay (NCI)

growth inhibition values for the compounds below.
EXPERIMENT: NCI Yeast Anticancer Drug Screen. Data for the rad50 strain (AID 155);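 further: 0% = growth of vehicle-only cultures of the same strain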
TEST CONTEXT: S. cerevisiae rad50 strain growth inhibition; at 5.0 µM (retest, dose inferred, filed as 0.5); stronger effect = higher value
About 79,000 compounds went through this panel and 15% of them were active in at least one assay; those are over-represented in the sample as a whole.
Answer in %, number only, no unit symbol.

Observe how each entry below is paired with its result.
C=C(C)[P+](C)(c1ccccc1)c1ccccc1 | -12
COc1ccc2c(c1)CCc1c(-c3noc4c3CCc3cc(OC)ccc3-4)noc1-2 | -7
CSc1nc(C)c(C(=O)CCN2CCOCC2)s1 | -7
CCN(CC)CCC(=O)OC1C(C)=CC(C)C(=O)CC(C(C)CC2CCC(O)C(OC)C2)OC(=O)C2CCCCN2C(=O)C(=O)[C@@]2(O)OC(CCC2C)CC(OC)\C(C)=C/C=C/C=C/C(C)CC(C)C(=O)C1OC (some centres not stated) | 40
CCN(CC)CCCNc1nc(NCCCN(CC)CC)c2nc(-c3ccccc3)c(-c3ccccc3)nc2n1 | -3
CC(C)C(O)C(C)C | 5
O=C([O-])c1ccccc1[I+]c1ccc(C2CCCCC2)cc1 | 3
ClC1=C(Cl)C(Cl)=C(Cl)C1 | 6
CN(C)c1ccc(/C=C2/Oc3ccc(Cl)cc3C2=O)cc1 | -2
CC(=O)Oc1c2c(c(OC(C)=O)c3c1n(C(C)=O)c1ccccc1n3C(C)=O)n(C(C)=O)c1ccccc1n2C(C)=O | 50

Entry `O/N=C1/CCCC/C1=C/c1ccc(Cl)cc1` — recorded growth inhibition = -152

Entry CC(=O)O[C@H]1CC[C@]2(C)C34OC3C[C@]3(C)[C@@H](C(C)=O)CC[C@H]3[C@]43C=C[C@@]2(C1)C1C(=O)OC(=O)C13 (some centres not stated) — recorded growth inhibition = 10
